- Test system: A498 renal
- Assay explanation: NCI-60 one-dose screen, 48 h (100 = growth as untreated, 0 = no growth, -100 = all killed)
- Protocol conditions: 10 µM
The panel holds about 83,000 compounds, 20% with a hit somewhere; the sample as a whole holds those more often.
Outcome: 1 (yes) for growth of at least 70%; 0 (no) for anything lower.

# example entries with known answers
Input: Can CN1C(=O)N(C)C2SC(N/N=C/C=C/c3ccccc3)=NC21 (stereo not drawn) be said to have growth at or above 70%?
Output: 1 (yes)

Input: Can Cc1ccc(NCC(=O)Nn2c(COc3ccccc3)nc3ccccc3c2=O)cc1 be said to have growth at or above 70%?
Output: 1 (yes)

Input: Can [2H]C([2H])([2H])Oc1ccc2ncc(C#Cc3cncc(C(=O)Nc4ccc(CN5CCN(C)CC5)c(C(F)(F)F)c4)c3)n2n1 be said to have growth at or above 70%?
Output: 0 (no)

Input: Can CC[C@@]1(O)C(=O)OCc2c1cc1n(c2=O)Cc2c-1nc1cc(F)c(C)c3c1c2[C@@H](N)CC3 be said to have growth at or above 70%?
Output: 0 (no)

Input: Can CN1CCN(c2ccc(Nc3nc(NCCCNC(=O)c4ccccc4)c4sccc4n3)cc2)CC1 be said to have growth at or above 70%?
Output: 1 (yes)

Input: Can COc1ccc(NC(=O)CSc2nnc(-c3ccc4nc(-c5ccc(Cl)cc5)[nH]c4c3)o2)cc1 be said to have growth at or above 70%?
Output: 1 (yes)

Turning now to a further record.
Input: Can Cc1ccc(-c2nc(Nc3ccc(S(N)(=O)=O)cc3)c3ccccc3n2)cc1 be said to have growth at or above 70%?
Output: 0 (no)

###

- Tested on: SNB-75 CNS
- Assay explanation: NCI-60 one-dose screen, 48 h (100 = growth as untreated, 0 = no growth, -100 = all killed)
- Protocol conditions: 10 µM
Compounds without any hit were thinned out: in the full panel of roughly 83,000, 20% have a hit.
Readout: growth (%)
Reply with just the number (in %).

Input: Give the reported growth for this molecule. COC[C@@H](CC(C)C)N=C1N/C(=C\c2ccc3ncsc3c2)C(=O)N1C
Output: 27.5

Input: Give the reported growth for this molecule. C=C[C@H]1[C@H](O[C@@H]2OC(CO)[C@@H](O)[C@H](O)C2OC(=O)c2c(O)cc(O)cc2-c2cccc(O)c2)OC=C2C(=O)OCC[C@H]21 (some centres undefined)
Output: 93.2

Input: Give the reported growth for this molecule. CO[C@H]1CSS[C@@H]1Cn1nc(-c2ccc(Oc3ccccc3)cc2)c2c(N)ncnc21
Output: 104

// below: growth requested for another molecule
Input: Give the reported growth for this molecule. CC(C)Sc1nc(NC2CC2)c(C#N)c(-c2ccccc2)n1
Output: 81.3

###

- System: BT-549 breast
- Assay explanation: NCI-60 one-dose screen, 48 h (100 = growth as untreated, 0 = no growth, -100 = all killed)
- Protocol conditions: 10 µM
Compounds without any hit were thinned out: in the full panel of roughly 83,000, 20% have a hit.
Readout: growth (%)
Reply with just the number (in %).

Solved entries:
Input: Give the reported growth for this compound. COC1CC(Cn2cc(COc3ccc4ccc(=O)oc4c3)nn2)C(OCc2ccccc2)C(OCc2ccccc2)C1OCc1ccccc1 (stereo not given)
Output: 122

Input: Give the reported growth for this compound. Cc1ccc(-c2nc(Nc3ccccc3C(=O)O)c3ccccc3n2)cc1
Output: -23.5

Input: Give the reported growth for this compound. Cc1ccc(-c2nc3ccc(C(=O)N=Nc4c(O)[nH]c5ccc(Cl)cc45)cc3[nH]2)cc1
Output: -1.74

Continuing:
Input: Give the reported growth for this compound. O=c1[nH]c2ccc(Cl)cc2cc1CSc1ccc(Nc2nccc(-c3ccc4ccccc4c3)n2)cc1
Output: 83.4

Input: Give the reported growth for this compound. O=C(c1ccc(O)cc1)C1[C@H](c2ccccc2Br)[C@@H](c2ccccc2)NC12C(=O)Nc1ccc(Cl)cc12 (stereo not given in full)
Output: 15.7
